Hey, just so you know, these numbers are from patent US11154563B2.

- Target system: constitutive proteasome β5c unit (Homo sapiens, UniProt P20618+P28074)
- Assay summary: Caliper-based proteasome enzymatic activity assay, β5c
- Details: human recombinant constitutive proteasome 0.3 nM, FAM-peptide substrate 1 μM, 3 h at rt; read-out: β5c subunit IC50
API: label(entry) gives criterion met if the entry's IC50 is strictly smaller than 3000 nM; on equality or larger values it gives criterion not met.

> print(dat)
                                    compound     category.label
 1  CC(C)(C=C(C#N)C(=O)N1CCC[C@@H]1COC(=O)N[C@@H](Cc1ccccc1)B(O)O)N1CCOCC1  criterion not met
 2  CC1(C=C(C#N)C(=O)N2CCCC[C@@H]2COC(=O)N[C@@H](Cc2coc3ccccc23)B(O)O)CCOCC1      criterion met
 3  CC(=O)N1CCN(C(C)(C)C=C(C#N)C(=O)N2CCC[C@@H]2COC(=O)N[C@@H](Cc2coc3ccccc23)B(O)O)CC1      criterion met
 4  CC(C)C=C(C#N)C(=O)N1CCC[C@@H]1COC(=O)N[C@@H](Cc1ccccc1)B(O)O  criterion not met
 5  CC(C)(C)C[C@H](NC(=O)OC[C@@]1(C)CCCN1C(=O)C(C#N)=CC(C)(C)N1CCC(F)(F)C1)B(O)O      criterion met
 6  CC(C)(C=C(C#N)C(=O)N1CCC[C@]1(C)COC(=O)N[C@@H](Cc1ccccc1)B(O)O)N1CCC(F)(F)C1  criterion not met
 7  CC(C)C=C(C#N)C(=O)N1CCCC[C@@H]1COC(=O)N[C@@H](Cc1ccccc1)B(O)O  criterion not met
 8  C=C(F)C(=O)N1CCC[C@]1(C)COC(=O)N[C@@H](Cc1ccc(F)cc1)B(O)O      criterion met
 9  C=CC(=O)N1CCS(=O)(=O)C[C@@H]1COC(=O)N[C@@H](Cc1coc2ccccc12)B(O)O      criterion met
10  CC(C)(C=C(C#N)C(=O)N1CCCC[C@@H]1COC(=O)N[C@@H](Cc1cccc2ccccc12)B(O)O)N1CCC(F)(F)C1      criterion met
11  CC(C)(C)C=C(C#N)C(=O)N1CCC[C@@H]1COC(=O)N[C@@H](Cc1ccccc1)B(O)O  criterion not met
12  CC(C)(C=C(C#N)C(=O)N1C[C@@H]2C[C@@H]2[C@@H]1COC(=O)N[C@@H](Cc1ccccc1)B(O)O)N1CCOCC1      criterion met
13  CC(C)C=C(C#N)C(=O)N1CCC[C@H]1COC(=O)N[C@@H](Cc1ccccc1)B(O)O  criterion not met
14  Cc1ccc(C[C@H](NC(=O)OC[C@H]2[C@H]3C[C@H]3CN2C(=O)C(C#N)=CC(C)(C)N2CCC(F)(F)C2)B(O)O)cc1  criterion not met
15  C=CC(=O)N1CCC[C@@H]1COC(=O)N[C@@H](Cc1ccc(C)cc1)B(O)O  criterion not met
16  CC(C)(C)/C=C(\C#N)C(=O)N1CCCC[C@H]1COC(=O)N[C@@H](Cc1ccccc1)B(O)O  criterion not met
17  CC(C)(C=C(C#N)C(=O)N1CCCC[C@]1(C)COC(=O)N[C@@H](Cc1ccccc1)B(O)O)N1CCC(F)(F)C1      criterion met
18  CC(C)(C=C(C#N)C(=O)N1CCCC[C@@H]1COC(=O)N[C@@H](Cc1ccccc1)B(O)O)N1CCOCC1  criterion not met
19  CC(C)(C)C=C(C#N)C(=O)N1CCOC[C@@H]1COC(=O)N[C@@H](Cc1coc2ccccc12)B(O)O      criterion met
20  CC(C)(C=C(C#N)C(=O)N1CCCC[C@@H]1COC(=O)N[C@@H](Cc1coc2ccccc12)B(O)O)N1CCCC(F)(F)C1      criterion met
21  COC(=O)N1CCN(C(C)(C)C=C(C#N)C(=O)N2CCCC[C@@H]2COC(=O)N[C@@H](Cc2ccccc2)B(O)O)CC1      criterion met
22  C=CC(=O)N1CCC(F)(F)C[C@@H]1COC(=O)N[C@@H](Cc1coc2ccccc12)B(O)O      criterion met
23  CC(C)C=C(C#N)C(=O)N1CCCC1CCC(=O)N[C@@H](Cc1ccccc1)B(O)O (single isomer, unassigned) [Example 3]  criterion not met
24  CC(C)(C=C(C#N)C(=O)N1CCC[C@@H]1COC(=O)N[C@@H](Cc1coc2ccccc12)B(O)O)N1CCN(C2COC2)CC1      criterion met
25  CC(C)(C=C(C#N)C(=O)N1CCC[C@@H]1COC(=O)N[C@@H](Cc1ccccc1)B(O)O)N1CCCC1  criterion not met
26  CC(C)(C=C(C#N)C(=O)N1CCC[C@]1(C)COC(=O)N[C@@H](Cc1ccc(F)cc1)B(O)O)N1CCC(F)(F)C1  criterion not met
27  CC(C)C=C(C#N)C(=O)N1CCC[C@@H]1COC(=O)N[C@@H](Cc1coc2ccccc12)B(O)O      criterion met

---

pIC50 values, listed per item
- Target system: immunoproteasome LMP7/B5i subunit (Homo sapiens, UniProt P20618+P28062)
- Assay summary: Caliper-based proteasome enzymatic activity assay, LMP7
- Details: human recombinant immunoproteasome 0.3 nM, FAM-peptide substrate 1 μM, 3 h at rt
pIC50: −log10 of the molar value.
Experimental endpoint: pIC50

> print(dat)
                                   compound  experimental.endpoint   val
1  CC(C)(C)C=C(C#N)C(=O)N1CCC[C@@H]1COC(=O)N[C@@H](Cc1coc2ccccc12)B(O)O [Example 39]                  pIC50  8.92
2  CC(C)(C=C(C#N)C(=O)N1CCOC[C@@H]1COC(=O)N[C@@H](Cc1coc2ccccc12)B(O)O)N1CCOCC1 [Example 58]                  pIC50  9.10
3  CC(C)(C=C(C#N)C(=O)N1CCCC[C@@H]1COC(=O)N[C@@H](Cc1coc2ccccc12)B(O)O)N1CCC(F)(F)C1 [Example 47]                  pIC50  8.96
4  CC(C)(C=C(C#N)C(=O)N1CCC[C@]1(C)COC(=O)N[C@@H](Cc1coc2ccccc12)B(O)O)N1CCC(F)(F)C1 [Example 117]                  pIC50  9.10
5  CC(C)(C=C(C#N)C(=O)N1C[C@@H]2C[C@@H]2[C@@H]1COC(=O)N[C@@H](Cc1ccccc1)B(O)O)N1CCOCC1 [Example 67]                  pIC50  9.00
6  CC(C)(C=C(C#N)C(=O)N1CCC[C@@H]1COC(=O)N[C@@H](Cc1ccccc1)B(O)O)N1CCC(F)(F)C1 [Example 35]                  pIC50  8.70
7  CC(C)(C=C(C#N)C(=O)N1C[C@@H]2C[C@@H]2[C@@H]1COC(=O)N[C@@H](Cc1ccc(F)cc1)B(O)O)N1CCC(F)(F)C1 [Example 108]                  pIC50  9.05

---

pIC50 values, listed per item
- Target system: immunoproteasome LMP7/B5i subunit (Homo sapiens, UniProt P20618+P28062)
- Assay summary: Caliper-based proteasome enzymatic activity assay, LMP7
- Details: human recombinant immunoproteasome 0.3 nM, FAM-peptide substrate 1 μM, 3 h at rt
pIC50: −log10 of the molar value.
Experimental endpoint: pIC50

> print(dat)
                                   compound   val
1  CC(C)(C=C(C#N)C(=O)N1CCCCC[C@H]1COC(=O)N[C@@H](Cc1coc2ccccc12)B(O)O)N1CCOCC1 [Example 64]  8.48
2  C=CC(=O)N1C[C@@H]2C[C@@H]2[C@@H]1COC(=O)N[C@@H](Cc1ccc(C(F)(F)F)cc1)B(O)O [Example 115]  8.59
3  CC(C)(C=C(C#N)C(=O)N1CCOC[C@@H]1COC(=O)N[C@@H](CCc1ccccc1)B(O)O)N1CCC(F)(F)C1 [Example 98]  8.46
4  Cc1ccc(C[C@H](NC(=O)OC[C@H]2[C@H]3C[C@H]3CN2C(=O)C(C#N)=CC(C)(C)N2CCOCC2)B(O)O)cc1 [Example 75]  8.96
5  CN(CC(F)(F)F)C(C)(C)C=C(C#N)C(=O)N1CCCC[C@@H]1COC(=O)N[C@@H](Cc1ccccc1)B(O)O [Example 97]  8.30
6  CC(C)C=C(C#N)C(=O)N1CCC[C@H]1COC(=O)N[C@@H](Cc1ccccc1)B(O)O [Example 12]  7.41
7  Cc1ccc(C[C@H](NC(=O)OC[C@@H]2CCCCCN2C(=O)C(C#N)=CC(C)(C)C)B(O)O)cc1 [Example 33]  7.39

---

- Target system: immunoproteasome LMP7/B5i subunit (Homo sapiens, UniProt P20618+P28062)
- Assay summary: Caliper-based proteasome enzymatic activity assay, LMP7
- Details: human recombinant immunoproteasome 0.3 nM, FAM-peptide substrate 1 μM, 3 h at rt
pIC50: −log10 of the molar value.
Experimental endpoint: pIC50

> print(dat)
                                   molecule   val
1  C=CC(=O)N1C[C@H](F)C[C@@H]1COC(=O)N[C@@H](Cc1ccccc1)B(O)O  7.14
2  Cc1ccc(C[C@H](NC(=O)OC[C@H]2COCCN2C(=O)C(C#N)=CC(C)(C)C)B(O)O)cc1  8.57
3  C=CC(=O)N1C[C@@H]2C[C@@H]2[C@@H]1COC(=O)N[C@@H](Cc1ccc(C)cc1)B(O)O  7.43
4  CC(C)(C)C=C(C#N)C(=O)N1C[C@@H]2C[C@@H]2[C@@H]1COC(=O)N[C@@H](Cc1ccccc1)B(O)O  8.92
5  CC(C)(C)C=C(C#N)C(=O)N1CCOC[C@@H]1COC(=O)N[C@@H](Cc1coc2ccccc12)B(O)O  8.70
6  C=CC(=O)N1CCC[C@@H]1COC(=O)N[C@@H](Cc1coc2ccccc12)B(O)O  8.16
7  Cc1ccc(C[C@H](NC(=O)OC[C@H]2CCCN2C(=O)C(C#N)=CC(C)(C)C)B(O)O)cc1  8.70
